experimental-target: VEGFR2 (vascular endothelial growth factor receptor 2) (Homo sapiens, UniProt P35968)
Sequence (P35968 whole entry, the tested form may be a part): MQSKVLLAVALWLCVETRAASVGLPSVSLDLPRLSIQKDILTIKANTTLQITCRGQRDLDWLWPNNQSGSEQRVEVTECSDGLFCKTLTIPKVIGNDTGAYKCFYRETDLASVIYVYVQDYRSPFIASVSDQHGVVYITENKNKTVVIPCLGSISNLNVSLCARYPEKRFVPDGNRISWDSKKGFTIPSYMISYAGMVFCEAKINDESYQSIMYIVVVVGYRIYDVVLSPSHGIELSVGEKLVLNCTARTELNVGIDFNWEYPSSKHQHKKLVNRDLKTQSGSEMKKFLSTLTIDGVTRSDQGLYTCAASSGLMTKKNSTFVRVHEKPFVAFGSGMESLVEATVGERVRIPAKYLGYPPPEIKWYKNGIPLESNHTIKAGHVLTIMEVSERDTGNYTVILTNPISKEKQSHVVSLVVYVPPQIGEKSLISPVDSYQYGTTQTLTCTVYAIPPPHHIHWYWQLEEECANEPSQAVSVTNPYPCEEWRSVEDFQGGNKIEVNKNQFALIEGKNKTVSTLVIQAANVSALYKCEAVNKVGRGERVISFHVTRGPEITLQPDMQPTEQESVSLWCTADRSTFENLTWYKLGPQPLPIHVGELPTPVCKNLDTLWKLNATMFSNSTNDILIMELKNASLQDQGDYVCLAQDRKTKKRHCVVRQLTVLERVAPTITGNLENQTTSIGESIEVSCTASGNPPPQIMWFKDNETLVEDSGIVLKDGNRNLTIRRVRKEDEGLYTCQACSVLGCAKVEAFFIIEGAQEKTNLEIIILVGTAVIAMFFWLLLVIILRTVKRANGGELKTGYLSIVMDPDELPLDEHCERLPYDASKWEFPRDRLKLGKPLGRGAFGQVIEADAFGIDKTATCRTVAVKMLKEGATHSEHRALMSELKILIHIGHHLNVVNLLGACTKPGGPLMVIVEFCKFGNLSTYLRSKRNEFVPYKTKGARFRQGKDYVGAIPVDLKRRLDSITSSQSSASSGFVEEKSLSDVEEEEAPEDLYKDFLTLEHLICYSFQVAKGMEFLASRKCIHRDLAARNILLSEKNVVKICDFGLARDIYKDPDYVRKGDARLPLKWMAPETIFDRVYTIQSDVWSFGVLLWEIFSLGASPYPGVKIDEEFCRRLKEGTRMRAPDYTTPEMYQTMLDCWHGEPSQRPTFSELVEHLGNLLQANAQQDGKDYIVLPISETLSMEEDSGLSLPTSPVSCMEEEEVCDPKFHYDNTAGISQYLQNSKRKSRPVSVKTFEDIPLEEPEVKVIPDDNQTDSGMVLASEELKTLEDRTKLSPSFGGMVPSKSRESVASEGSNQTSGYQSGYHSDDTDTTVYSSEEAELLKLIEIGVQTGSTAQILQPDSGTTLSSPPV
measurement-notes: Inhibition of wild-type human partial length VEGFR2 (R787 to P1253 residues) expressed in HEK293 cells assessed as residual activity at 1000 nM after 30 mins by Kinomescan method relative to control
Format: cell-based
test-parameters: read-out: Activity
measured-attribute: activity at 0.5 h, 1 µM (%)
Express your answer in %, writing the number without its unit.

Kindly indicate its recorded activity at 0.5 h, 1 µM. Item: COc1cc(OC)c(Cl)c(N2Cc3cnc(Nc4ccc(F)cc4)nc3N(C3CCN(C(=O)/C=C/CN(C)C)CC3)C2=O)c1Cl
7.3
